Just for reference, patent US20140094493A1 is where these values come from.

Counter-ions that a name gives are not always drawn.
Below, each entry is listed alongside its reported melting point.
measured-attribute: melting point

INSERT INTO measurements (molecule, result) VALUES
  ('CC(=O)Nc1ccc(OCCNC[C@H](O)COc2ccc3c(c2)OC[C@@H](COCC2CC2)O3)cc1', '123 to 125 °C'),
  ('NC(=O)c1ccc(OCCNC[C@H](O)COc2ccc(CCCN3CCC(F)(F)CC3)cc2)cc1 (as salt: hydrochloride) [Example 41, dihydrochloride]', '234 to 235 °C'),
  ('O=C1NCc2cc(OCCNC[C@H](O)COc3ccc4cc(OCC5CC5)ccc4c3)ccc21', '194 to 196 °C'),
  ('O=C1NCc2cc(OCCNC[C@H](O)COc3ccc4c(c3)OC[C@H](COc3ccc(F)cc3)O4)ccc21', '161 to 164 °C'),
  ('NC(=O)c1ccc(OCCNC[C@H](O)COc2ccc3c(c2)OC[C@@H](COCC2CC2)O3)cc1', '136 to 138 °C'),
  ('Cc1ccccc1OC[C@@H]1COc2cc(OC[C@@H](O)CNCCOc3ccc4c(c3)CNC4=O)ccc2O1', '146 to 148 °C'),
  ('O=C1NCc2cc(OCCNC[C@H](O)COc3ccc4c(c3)OC[C@@H](CN3CCC(F)(F)CC3)O4)ccc21', '134 to 135 °C');

---

Target: human beta1-adrenoceptor (Homo sapiens, UniProt P08588)
Construct: expressed in transfected cells; host or cells: CHO cells
Sequence (P08588 whole entry): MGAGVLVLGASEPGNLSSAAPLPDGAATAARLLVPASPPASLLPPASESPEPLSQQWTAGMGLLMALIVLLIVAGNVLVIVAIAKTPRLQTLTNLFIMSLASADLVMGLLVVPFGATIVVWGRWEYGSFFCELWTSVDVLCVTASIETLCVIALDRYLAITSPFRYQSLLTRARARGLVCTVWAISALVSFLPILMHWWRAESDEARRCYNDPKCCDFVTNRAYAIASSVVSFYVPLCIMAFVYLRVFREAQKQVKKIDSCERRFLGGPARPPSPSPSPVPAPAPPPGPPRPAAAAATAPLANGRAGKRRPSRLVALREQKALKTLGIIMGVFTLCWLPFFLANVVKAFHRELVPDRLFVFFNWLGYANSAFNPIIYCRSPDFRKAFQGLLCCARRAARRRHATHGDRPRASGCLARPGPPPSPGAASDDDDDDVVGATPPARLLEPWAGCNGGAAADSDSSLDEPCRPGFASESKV
Assay: 3H-CGP12177 whole-cell binding, beta1
Details: 3H-CGP 12177 whole cell binding, CHO cells expressing human beta1-adrenoceptor; logarithmic value
Below, each entry is listed alongside its reported Beta 1 Log KD.
measured-attribute: Beta 1 Log KD

INSERT INTO results (sample_smiles, measured_attribute, quantitative_result) VALUES
  ('NC(=O)c1ccc(OCCNC[C@H](O)COc2ccc(CCOCC3CC3)cc2)cc1', 'Beta 1 Log KD', '−8.99'),
  ('O=C1NCc2cc(OCCNC[C@H](O)COc3ccc(CCCOC4CC4)cc3)ccc21', 'Beta 1 Log KD', '−9.17'),
  ('NC(=O)c1ccc(OCCNC[C@H](O)COc2ccc(CCCOC3CC3)cc2)cc1', 'Beta 1 Log KD', '−8.67'),
  ('O=C1NCc2cc(OCCNC[C@H](O)COc3ccc4c(c3)OC[C@@H](COc3c(F)cccc3F)O4)ccc21', 'Beta 1 Log KD', '−8.54'),
  ('O=C1NCc2cc(OCCNC[C@H](O)COc3ccc4c(c3)OC[C@@H](COc3ccccc3F)O4)ccc21', 'Beta 1 Log KD', '−8.68'),
  ('CC(=O)Nc1ccc(OCCNC[C@H](O)COc2ccc(CCCOCC3CC3)cc2)cc1', 'Beta 1 Log KD', '−8.83');

---

Target: human beta1-adrenoceptor (Homo sapiens)
Construct: expressed in transfected cells; host or cells: CHO cells
Experiment: 3H-CGP12177 whole-cell binding, beta1
Settings: difference of Log KD beta1 and beta2; 1 = 10-fold, 2 = 100-fold, 3 = 1000-fold selectivity
Give true (1) when the value for Beta 1-Beta 2 Log KD (selectivity) is at least 3. Give false (0) when it is less.

INSERT INTO results (molecule, class_name) VALUES
  ('NC(=O)c1ccc(OCCNC[C@H](O)COc2ccc3c(c2)OC[C@@H](COCC2CC2)O3)cc1 [Example 11]', 'false (0)'),
  ('COc1c(F)cc(OC[C@@H]2COc3cc(OC[C@@H](O)CNCCOc4ccc5c(c4)CNC5=O)ccc3O2)cc1F [Example 37]', 'true (1)'),
  ('O=C1NCc2cc(OCCNC[C@H](O)COc3ccc4c(c3)OC[C@H](COc3ccc(F)cc3)O4)ccc21 [Example 26]', 'false (0)'),
  ('NC(=O)c1ccc(OCCNC[C@H](O)COc2ccc(CCCOCC3CC3)cc2)cc1 [Example 8]', 'false (0)');

---

Below, each entry is listed alongside its reported melting point.
measured-attribute: melting point

INSERT INTO measurements (molecule, result) VALUES
  ('O[C@@H](CNCCOc1ccc2ncccc2c1)COc1ccc(CCCOCC2CC2)cc1', '128 to 130 °C'),
  ('COc1ccc(OCC2COc3cc(OCC(O)CNCCOc4ccc5c(c4)CNC5=O)ccc3O2)c(F)c1 (centres unmarked)', '145 to 147 °C'),
  ('COc1c(F)cc(OC[C@@H]2COc3cc(OC[C@@H](O)CNCCOc4ccc5c(c4)CNC5=O)ccc3O2)cc1F', '182 to 184 °C'),
  ('O=C1NCc2cc(OCCNC[C@H](O)COc3ccc4c(c3)OC[C@@H](COc3ccncc3)O4)ccc21', '192 to 194 °C'),
  ('NC(=O)c1ccc(OCCNC[C@H](O)COc2ccc3c(c2)OC[C@@H](COC2CCCC2)O3)cc1', '134 to 136 °C');

---

Below, each entry is listed alongside its reported Beta 1-Beta 2 Log KD (selectivity).
Biological target: human beta1-adrenoceptor (Homo sapiens, UniProt P08588)
Construct: expressed in transfected cells; host or cells: CHO cells
Assay: 3H-CGP12177 whole-cell binding, beta1
Conditions: difference of Log KD beta1 and beta2; 1 = 10-fold, 2 = 100-fold, 3 = 1000-fold selectivity
measured-attribute: Beta 1-Beta 2 Log KD (selectivity)

INSERT INTO results (compound, sign_qualifier, quantitative_result) VALUES
  ('NC(=O)c1ccc(OCCNC[C@H](O)COc2ccc3cc(COCC4CC4)ccc3c2)cc1', '<', 2.93),
  ('O=C1NCc2cc(OCCNC[C@H](O)COc3ccc4c(c3)OC[C@@H](COc3ccc(OC(F)(F)F)cc3)O4)ccc21', '=', 3.37),
  ('NC(=O)c1ccc(OCCNC[C@H](O)COc2ccc(CCOCC3CC3)cc2)cc1', '=', 2.28),
  ('O[C@@H](CNCCOc1ccc2ncccc2c1)COc1ccc(CCCOCC2CC2)cc1', '=', 2.22),
  ('COc1ccc(OCCNCC(O)COc2ccc(OCCOC3CCCC3)cc2)cc1 (racemic)', '=', 2.01),
  ('O=C1NCc2cc(OCCNC[C@H](O)COc3ccc4c(c3)OC[C@@H](COc3c(F)cccc3F)O4)ccc21', '=', 3.34),
  ('O=C1NCc2cc(OCCNC[C@H](O)COc3ccc4c(c3)OC[C@@H](COCC3CC3)O4)ccc21', '=', 3.01),
  ('O=C1NCc2cc(OCCNC[C@H](O)COc3ccc4c(c3)OC[C@@H](COc3ccccc3F)O4)ccc21', '=', 3.70);

---

Target: human beta2-adrenoceptor (Homo sapiens)
Construct: expressed in transfected cells; host or cells: CHO cells
Sequence (P07550 whole entry): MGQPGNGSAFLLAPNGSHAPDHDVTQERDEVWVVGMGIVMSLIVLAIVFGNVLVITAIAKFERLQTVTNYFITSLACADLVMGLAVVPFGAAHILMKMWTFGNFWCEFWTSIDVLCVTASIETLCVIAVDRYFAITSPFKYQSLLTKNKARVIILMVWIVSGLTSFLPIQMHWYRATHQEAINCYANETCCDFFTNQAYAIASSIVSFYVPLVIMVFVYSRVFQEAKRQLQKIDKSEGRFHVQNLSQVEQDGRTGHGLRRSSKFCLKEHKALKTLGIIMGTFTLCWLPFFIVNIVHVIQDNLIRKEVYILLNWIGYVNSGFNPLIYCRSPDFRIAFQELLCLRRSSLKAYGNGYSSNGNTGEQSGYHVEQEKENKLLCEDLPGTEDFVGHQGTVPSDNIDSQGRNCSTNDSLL
Assay: 3H-CGP12177 whole-cell binding, beta2
Settings: 3H-CGP 12177 whole cell binding, CHO cells expressing human beta2-adrenoceptor; logarithmic value; read-out: Beta 2 Log KD (converted)
Below, each entry is listed alongside its reported Kd.
measured-attribute: Kd

INSERT INTO results (molecule, assay_system, result) VALUES
  ('COc1ccc(OCCNCC(O)COc2ccc(OCCOC3CCCC3)cc2)cc1 (racemic)', 'human beta2-adrenoceptor (Homo sapiens)', '759 nM'),
  ('COc1ccc(OCC2COc3cc(OCC(O)CNCCOc4ccc5c(c4)CNC5=O)ccc3O2)c(F)c1 (stereo not drawn)', 'human beta2-adrenoceptor (Homo sapiens)', '1620 nM'),
  ('O=C1NCc2cc(OCCNC[C@H](O)COc3ccc4c(c3)OC[C@@H](COc3cccc(F)c3)O4)ccc21', 'human beta2-adrenoceptor (Homo sapiens)', '2000 nM');

---

Target: human beta1-adrenoceptor (Homo sapiens, UniProt P08588)
Construct: expressed in transfected cells; host or cells: CHO cells
Assay: 3H-CGP12177 whole-cell binding, beta1
Details: difference of Log KD beta1 and beta2; 1 = 10-fold, 2 = 100-fold, 3 = 1000-fold selectivity
Where a name gives a salt, the structure may show the parent alone.
measured-attribute: Beta 1-Beta 2 Log KD (selectivity)

INSERT INTO assay_data (compound, sign_qualifier, quantitative_result) VALUES
  ('O=C1NCc2cc(OCCNC[C@H](O)COc3ccc4c(c3)OC[C@@H](CN3CCC(F)(F)CC3)O4)ccc21 [Example 43]', '=', 2.81),
  ('NC(=O)c1ccc(OCCNC[C@H](O)COc2ccc(CCCOC3CCCC3)cc2)cc1 [Example 9]', '=', 2.59),
  ('NC(=O)c1ccc(OCCNC[C@H](O)COc2ccc(CCCN3CCC(F)(F)CC3)cc2)cc1 [Example 41, dihydrochloride]', '=', 2.87),
  ('O=C1NCc2cc(OCCNC[C@H](O)COc3ccc4c(c3)OC[C@@H](COc3ccc(F)cc3)O4)ccc21 [Example 25]', '=', 2.64),
  ('O=C1NCc2cc(OCCNC[C@H](O)COc3ccc4c(c3)OC[C@@H](COc3ccncc3)O4)ccc21 [Example 30]', '=', 3.10),
  ('NC(=O)c1ccc(OCCNC[C@H](O)COc2ccc(CCCOC3CC3)cc2)cc1 [Example 46]', '=', 2.57),
  ('CN(C)C(=O)c1ccc(OCCNC[C@H](O)COc2ccc(OCCOC3CCCC3)cc2)cc1 [Example 6]', '=', 1.96),
  ('O=C1NCc2cc(OCCNC[C@H](O)COc3ccc4c(c3)OC[C@@H](COc3cccc(F)c3)O4)ccc21 [Example 33]', '=', 2.85),
  ('CC(=O)Nc1ccc(OCCNC[C@H](O)COc2ccc(CCCOCC3CC3)cc2)cc1 [Example 13]', '=', 2.3),
  ('COc1ccc(OCC2COc3cc(OCC(O)CNCCOc4ccc5c(c4)CNC5=O)ccc3O2)c(F)c1 (stereo not drawn) [Example 40]', '=', 2.70),
  ('O[C@@H](CNCCOc1ccc2nccnc2c1)COc1ccc(CCCOCC2CC2)cc1 [Example 21]', '=', 2.19),
  ('O=C1NCc2cc(OCCNC[C@H](O)COc3ccc(CCCOC4CC4)cc3)ccc21 [Example 45]', '=', 2.65),
  ('CC(=O)Nc1ccc(OCCNC[C@H](O)COc2ccc3c(c2)OC[C@@H](COCC2CC2)O3)cc1 [Example 15]', '=', 2.76),
  ('O=C1NCc2cc(OCCNC[C@H](O)COc3ccc(CCCN4CCC(F)(F)CC4)cc3)ccc21 [Example 42]', '=', 2.32),
  ('CC1(C)COc2cc(OC[C@@H](O)CNCCOc3ccc(C(N)=O)cc3)ccc2O1 [Example 44]', '<', 2.50),
  ('O[C@@H](CNCCOc1ccc2ncccc2c1)COc1ccc2c(c1)OC[C@@H](COCC1CC1)O2 [Example 14]', '=', 2.48),
  ('O=c1[nH]c2ccc(OCCNC[C@H](O)COc3ccc(CCCOCC4CC4)cc3)cc2[nH]1 [Example 22]', '=', 2.23),
  ('NC(=O)c1ccc(OCCNCC(O)COc2ccc(OCCOC3CCCC3)cc2)cc1 (stereo not drawn) [Example 1]', '=', 2.40);
